Target: UniProt P12527
Sequence (P12527 whole entry): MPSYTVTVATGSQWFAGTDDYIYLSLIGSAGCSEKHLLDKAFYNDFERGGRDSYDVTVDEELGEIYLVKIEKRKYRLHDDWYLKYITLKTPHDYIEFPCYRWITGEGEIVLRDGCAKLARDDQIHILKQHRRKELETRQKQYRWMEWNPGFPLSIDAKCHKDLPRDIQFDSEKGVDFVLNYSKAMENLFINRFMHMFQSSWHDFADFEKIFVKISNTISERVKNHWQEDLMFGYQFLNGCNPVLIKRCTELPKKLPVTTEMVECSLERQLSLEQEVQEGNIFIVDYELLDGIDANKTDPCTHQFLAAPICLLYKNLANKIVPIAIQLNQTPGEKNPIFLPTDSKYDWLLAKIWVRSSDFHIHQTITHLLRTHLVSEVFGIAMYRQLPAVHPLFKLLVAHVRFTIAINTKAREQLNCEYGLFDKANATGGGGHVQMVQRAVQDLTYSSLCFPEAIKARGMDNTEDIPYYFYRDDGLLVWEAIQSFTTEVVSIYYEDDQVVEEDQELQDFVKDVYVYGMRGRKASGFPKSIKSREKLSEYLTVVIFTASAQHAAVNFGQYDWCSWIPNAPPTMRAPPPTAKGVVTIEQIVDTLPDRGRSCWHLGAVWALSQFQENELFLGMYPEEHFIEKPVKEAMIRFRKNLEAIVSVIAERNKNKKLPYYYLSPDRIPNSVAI
measure: IC50 (nM)

smilesrecord=O=C(Nc1ccc(CCc2ccc(O)c(O)c2)cc1)c1ccccc1O measure=IC50 measuredresult=280

---

target: Polyunsaturated fatty acid lipoxygenase ALOX12 (Homo sapiens, UniProt P18054)
Sequence (P18054 whole entry): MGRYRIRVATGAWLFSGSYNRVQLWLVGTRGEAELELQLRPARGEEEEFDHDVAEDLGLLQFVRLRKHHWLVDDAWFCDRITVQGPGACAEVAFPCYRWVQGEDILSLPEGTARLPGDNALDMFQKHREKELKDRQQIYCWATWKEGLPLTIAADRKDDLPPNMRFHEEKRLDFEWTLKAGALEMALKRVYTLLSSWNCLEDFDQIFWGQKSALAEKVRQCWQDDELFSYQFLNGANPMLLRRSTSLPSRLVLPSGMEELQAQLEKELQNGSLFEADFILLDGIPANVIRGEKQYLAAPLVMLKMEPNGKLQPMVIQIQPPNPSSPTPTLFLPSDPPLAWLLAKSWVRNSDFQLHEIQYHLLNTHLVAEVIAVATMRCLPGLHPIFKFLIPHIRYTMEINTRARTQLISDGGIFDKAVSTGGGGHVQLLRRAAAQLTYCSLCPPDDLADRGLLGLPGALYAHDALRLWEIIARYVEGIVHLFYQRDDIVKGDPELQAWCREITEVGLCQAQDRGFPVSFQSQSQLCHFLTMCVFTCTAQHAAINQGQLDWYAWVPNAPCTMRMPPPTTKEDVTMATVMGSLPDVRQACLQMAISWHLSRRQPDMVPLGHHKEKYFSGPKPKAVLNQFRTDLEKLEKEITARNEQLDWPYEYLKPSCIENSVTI
measure: IC50 (µM)

smilesrecord=O=C(Nc1ccc(CCc2ccc(O)c(O)c2)cc1)c1ccccc1O measuredresult=5
